The origin of these recorded values is patent US20220064331A1.

Target: T1, rhesus monkey KLB (+N-ter FLAG) (rhesus monkey, UniProt Q86Z14 53-992 (human entry))
T1 construct: expressed from KLB cDNA on HEK293T cells and read by FACS
T1 chain: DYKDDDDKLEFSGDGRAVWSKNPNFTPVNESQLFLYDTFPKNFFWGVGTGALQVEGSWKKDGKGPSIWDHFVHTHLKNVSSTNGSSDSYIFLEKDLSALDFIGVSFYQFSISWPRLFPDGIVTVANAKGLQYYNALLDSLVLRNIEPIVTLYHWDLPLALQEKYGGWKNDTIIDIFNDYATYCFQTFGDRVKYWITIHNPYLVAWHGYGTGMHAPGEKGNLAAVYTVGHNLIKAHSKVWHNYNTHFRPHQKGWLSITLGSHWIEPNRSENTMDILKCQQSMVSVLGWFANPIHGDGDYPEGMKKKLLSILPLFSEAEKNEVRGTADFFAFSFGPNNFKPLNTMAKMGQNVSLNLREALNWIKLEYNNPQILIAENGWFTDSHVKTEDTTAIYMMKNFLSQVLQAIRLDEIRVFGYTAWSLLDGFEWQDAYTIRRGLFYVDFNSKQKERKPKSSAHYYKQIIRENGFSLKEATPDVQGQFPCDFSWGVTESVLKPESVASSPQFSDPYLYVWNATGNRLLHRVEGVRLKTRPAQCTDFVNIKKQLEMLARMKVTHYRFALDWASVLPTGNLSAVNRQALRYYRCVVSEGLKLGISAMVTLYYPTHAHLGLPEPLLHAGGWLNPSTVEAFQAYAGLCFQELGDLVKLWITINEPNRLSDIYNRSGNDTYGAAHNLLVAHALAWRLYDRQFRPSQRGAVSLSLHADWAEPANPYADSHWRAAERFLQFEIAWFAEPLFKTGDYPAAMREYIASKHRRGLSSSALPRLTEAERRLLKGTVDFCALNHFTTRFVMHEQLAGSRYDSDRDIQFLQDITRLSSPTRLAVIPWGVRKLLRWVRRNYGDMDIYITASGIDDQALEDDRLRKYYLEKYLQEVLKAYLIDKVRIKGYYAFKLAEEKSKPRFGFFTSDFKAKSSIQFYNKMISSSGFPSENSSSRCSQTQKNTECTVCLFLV
Assay: FACS on transfected HEK293T cells
readout.name: binding result

binder	result
5F8 (antibody, V domains shown, murine hybridoma-derived anti-KLB antibody) VH: EVQLQQSGTELVRPGASVKLSCTSSDFNIKDTYIHWVKQRPEQGLDWLGRIDPANGNTKYDPKFQGKAAMTSDTSSNTAYLRLSSLTSEDTAVYYCASSGNYGAMDYWGQGTSVTVSS VL: ESVLTQSPALMSASLGEKVTMTCRASSSVNHMYWYQQKSDASPKLWIYYTSTLAPGVPARFSGSGSGNSYSLTISSMEGEDAATYYCQQFTISPSMYTFGGGTKLEIK	binds
8H7 (antibody, V domains shown, murine hybridoma-derived anti-KLB antibody) VH: QVQLQQPGAEIVKPGASVRLSCKASGYSFTSYWIHWVKQRPGQGLEWIGEIDPSVSNSNYNQKFKGKATLTADKSSSTAYMQLSGLTSEDSAVYFCVRLGVMVYGSSPFWFAYWGQGTLVTVSA VL: DIVMTQSQKFMSTSVGDRVSITCKASQFVSDAVAWYQQKPGQSPKLLICSASYRYTGVPDRFTGSGSGTDFTFTISSVRTEDLAVYYCQQHYIVPYTFGGGTTLEIE	binds
21H3 (antibody, V domains shown, murine hybridoma-derived anti-KLB antibody) VH: QVQLQQPGAEIVKPGASVRLSCKASGYSFTSYWIHWVKQRPGQGLEWIGEIDPSVSNSNYNQKFKGKATLTADKSSSTAYMQLSGLTSEDSAVYFCVRLGVMVYGSSPFWFAYWGQGTLVTVSA VL: DIVMTQSQKFMSTSVGDRVSITCKASQFVSDAVAWYQQKPGQSPKLLICSASYRYTGVPDRFTGSGSGTDFTFTISSVRTEDLAVYYCQQHYIVPYTFGGGTTLEIE	binds
